The values you see were collected from patent US20190300623A1.

target: PSMA on PSMA-positive LNCaP (clone FGC) and C4-2 cells; assay: cell-based or functional assay
Test readout: IC50 (nM), anti-proliferative effect on LNCaP cells (CellTiter Glo viability)
Just the number in nM, nothing appended.

Below, 2 binders whose answers are already recorded.
Binder | Value observed
AB-04-mc-val-cit-PAB-MMAE (antibody, human IgG1, V domains shown, mc-val-cit-PAB-MMAE (maleimide reagent) conjugated after TCEP reduction; average DAR 3.5 (±0.2); attachment residues not given) VH: EVQLVQSGAEVKKPGASVKVSCKASGYTFTEYTIHWVRQAPGKGLEWIGNINPNNGGTTYNQKFEDRVTITVDKSTSTAYMELSSLRSEDTAVYYCAGAWTMDYWGQGTTVTVSS VL: DIQMTQSPSTLSASVGDRVTITCKASQDVGTAVDWYQQKPGQAPKLLIYWASTRHTGVPDRFSGSGSGTDFTLTISRLQPEDFAVYYCQQFTRYPLTFGQGTKVDIK | 0.67
AB-03-mc-val-cit-PAB-MMAE (antibody, human IgG1, V domains shown, mc-val-cit-PAB-MMAE (maleimide reagent) conjugated after TCEP reduction; average DAR 3.5 (±0.2); attachment residues not given) VH: EVQLVQSGAEVKKPGASVKVSCKASGYTFTEYTIHWVRQAPGKGLEWIGNINPNNGGTTYNQKFEDRVTITVDKSTSTAYMELSSLRSEDTAVYYCAGGWTFDYWGQGTTVTVSS VL: DIQMTQSPSTLSASVGDRVTITCKASQDVGTAVDWYQQKPGQAPKLLIYWASTRHTGVPDRFSGSGSGTDFTLTISRLQPEDFAVYYCQQFTRYPLTFGQGTKVDIK | 0.7

Shifting focus to the binder that follows.
Name the recorded IC50 (nM), anti-proliferative effect on LNCaP cells (CellTiter Glo viability) of the binder listed here: AB-08-mc-val-cit-PAB-MMAE (antibody, V domains shown, mc-val-cit-PAB-MMAE (maleimide reagent) conjugated after TCEP reduction; average DAR 3.5 (±0.2); attachment residues not given) VH: QVQLVESGGGVVQPGRSLRLSCAASGFAFSRYGMHWVRQAPGKGLEWVAVIWYDGSNKYYADSVKGRFTISRDNSKNTQYLQMNSLRAEDTAVYYCARGGDFLYYYYYGMDVWGQGTTVTVSS VL: DIQMTQSPSSLSASVGDRVTITCRASQGISNYLAWYQQKTGKVPKFLIYEASTLQSGVPSRFSGGGSGTDFTLTISSLQPEDVATYYCQNYNSAPFTFGPGTKVDIK
1.03
